Attribution: the supplement of paper PMC10567573

B1: PHTF1 (parent)
chain: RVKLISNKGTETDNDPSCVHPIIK

# Variants of: B1
# procedure-details: protein stability index of a GFP-peptide fusion (GPS, HEK-293T) (PSI 1-6); higher = more stable;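 also: lentivirally expressed fusions sorted by FACS into six bins by GFP to DsRed ratio, PSI derived from sequencing read proportions per bin multiplied by bin number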
# measurement-conditions: c terminus: a fixed tail appended

mutant-label: D15T
protein stability index: 3.56
--
mutant-label: I5A
protein stability index: 4.11
--
mutant-label: N14H
protein stability index: 3.82
--
mutant-label: G9H
protein stability index: 4.03
--
mutant-label: D15I
protein stability index: 3.29
--
mutant-label: I22D
protein stability index: 4.63
--
mutant-label: G9D
protein stability index: 4.36
--
mutant-label: L4S
protein stability index: 4.61
--
mutant-label: I5G
protein stability index: 4.09
--
mutant-label: E11D
protein stability index: 4.05
--
mutant-label: N14G
protein stability index: 3.83
--
mutant-label: K24M
protein stability index: 3
--
mutant-label: D15V
protein stability index: 3.68
--
mutant-label: I23N
protein stability index: 4.59
--
mutant-label: D13Y
protein stability index: 2.74
--
mutant-label: V19P
protein stability index: 4.64
--
mutant-label: L4D
protein stability index: 4.18
--
mutant-label: G9E
protein stability index: 4.23
--
mutant-label: I22H
protein stability index: 4.78
--
mutant-label: V19F
protein stability index: 3.31
--
mutant-label: H20S
protein stability index: 4.11
--
mutant-label: K24L
protein stability index: 2.67
